# assay.details: NCI Yeast Anticancer Drug Screen. Data for the mec2-1 strain (AID 157)
# recorded.conditions: S. cerevisiae mec2-1 strain, at 50.0 µM (retest, dose inferred, filed as 5.0)
Compounds without any hit were thinned out: in the full panel of roughly 79,000, 15% have a hit. Activity calls are given as the source filed them. Cut-off read from the data, not from the text of the source: active = growth inhibition above about 70%; inactive = the rest.
Classes used: active, inactive

[[record]]
compound = "CC1CN(C(=S)NNC(C)c2cc3ccccc3cn2)CC(C)O1 (stereo unspecified)"
class_label = "active"

[[record]]
compound = "CC1CC2(C)ON=C(c3ccccc3)N2c2ccccc2S1 (stereo unspecified)"
class_label = "active"

[[record]]
compound = "CCOC(=O)NC(NNc1ccc([N+](=O)[O-])cc1[N+](=O)[O-])(C(F)(F)F)C(F)(F)F"
class_label = "active"

[[record]]
compound = "CC(=O)OC1CCCCCCCCCCC12OCCO2 (stereo unspecified)"
class_label = "active"

[[record]]
compound = "COc1ccc(/C=C(\\C(=O)c2ccc(O)cc2)c2ccccc2)cc1OC"
class_label = "active"

[[record]]
compound = "O=[N+]([O-])c1cc(Cl)cc2c1nc(NCCO)c1ccccc12"
class_label = "inactive"

[[record]]
compound = "OCCC1CCN(CC/C=C2/c3ccc(F)cc3Sc3ccc(C(F)(F)F)cc32)CC1"
class_label = "inactive"

[[record]]
compound = "Nc1ccc(-c2cccc(-c3ccccc3)c2)cc1"
class_label = "active"

[[record]]
compound = "O=c1c2ccccc2nc(-c2ccccc2)n1NC(=S)Nc1ccc(Cl)cc1[N+](=O)[O-]"
class_label = "inactive"

[[record]]
compound = "Cc1cc2c(c3c1C(=O)CC3)C(C)(C)CC2(C)C"
class_label = "active"

[[record]]
compound = "O=[N+]([O-])c1cccc2c1[nH]c1c(-c3ccccc3)nccc12"
class_label = "active"

